For each entry below, report its CHLORIDE value.
Species: Rattus norvegicus
Assay: DrugMatrix - Regimen: Daily Repeat
Assay type: toxicity, organism-based, Sprague-Dawley
Set-up: regimen Daily Repeat, gender Male, age 6-8 weeks
Conditions: in vivo, po, 0 mg/kg, 120 h, tissue Plasma, route oral GAVAGE, dose level Control, time 5 day, vehicle 100 % WATER
Numbers only, in MEQ/L.

{"COMPOUND": "CCN(C(C)=O)c1cccc(-c2ccnc3c(C#N)cnn23)c1 [ZALEPLON]", "MEASURED": 99.67}
{"COMPOUND": "CN(C)C(=O)Oc1cccc([N+](C)(C)C)c1.[Br-] [NEOSTIGMINE BROMIDE]", "MEASURED": 99.75}
{"COMPOUND": "CN(C)CCC=C1c2ccccc2CCc2ccccc21 [AMITRIPTYLINE]", "MEASURED": 99.67}
{"COMPOUND": "CCN(CC)CCNC(=O)c1ccc(N)cc1 [PROCAINAMIDE]", "MEASURED": 106.17}
{"COMPOUND": "C#Cc1cccc(Nc2ncnc3cc(OCCOC)c(OCCOC)cc23)c1 [ERLOTINIB]", "MEASURED": 98.17}

Batch request: CHLORIDE per item, same order as input.
1. CNC1=Nc2ccc(Cl)cc2C(c2ccccc2)=[N+]([O-])C1 [CHLORDIAZEPOXIDE]
2. CCCC(C)C1(CC)C(=O)NC(=O)NC1=O (stereo unspecified) [PENTOBARBITAL]
3. O=c1[nH]c(=O)n(C2CCCO2)cc1F (stereo unspecified) [TEGAFUR]
4. NC12CC3CC(CC(C3)C1)C2 [AMANTADINE]

1: 100.33; 2: 99.75; 3: 103.5; 4: 99.67

Provide each entry's CHLORIDE from the list below.
1. NC(=O)c1cccnc1 [NIACINAMIDE]
2. CCN(CC)CCOC(=O)C1(C2CCCCC2)CCCCC1 [DICYCLOMINE]

[103.83, 101.67]

----------
Species on record: Rattus norvegicus
Assay: DrugMatrix - Regimen: Daily Repeat
Format: toxicity, organism-based, Sprague-Dawley
Design: regimen Daily Repeat, gender Male, age 6-8 weeks
Settings: in vivo, po, 0 mg/kg, 120 h, tissue Plasma, route oral GAVAGE, dose level Control, time 5 day, vehicle 100 % WATER
RECORDED METRIC: BLOOD UREA NITROGEN (mg/dL)
Answers are plain numbers, in mg/dL.

Use these answered entries as a reference point.
{"MOLECULE": "NC(=O)c1cccnc1 [NIACINAMIDE]", "RECORDED METRIC": "BLOOD UREA NITROGEN", "MEASURED": 17}
{"MOLECULE": "CN(C)CCC=C1c2ccccc2CCc2ccccc21 [AMITRIPTYLINE]", "RECORDED METRIC": "BLOOD UREA NITROGEN", "MEASURED": 15.33}

Quick batch: BLOOD UREA NITROGEN for everything below.
1. NC12CC3CC(CC(C3)C1)C2 [AMANTADINE]
2. CNC1=Nc2ccc(Cl)cc2C(c2ccccc2)=[N+]([O-])C1 [CHLORDIAZEPOXIDE]
3. O=c1[nH]c(=O)n(C2CCCO2)cc1F (stereo unspecified) [TEGAFUR]
4. CCN(CC)CCNC(=O)c1ccc(N)cc1 [PROCAINAMIDE]

1: 15.33; 2: 15.33; 3: 16.5; 4: 16.5
